# reported residual activity; entries follow
- Target or test system: Ephrin type-A receptor 4 (Homo sapiens) (UniProt P54764)
- Sequence (P54764 whole entry): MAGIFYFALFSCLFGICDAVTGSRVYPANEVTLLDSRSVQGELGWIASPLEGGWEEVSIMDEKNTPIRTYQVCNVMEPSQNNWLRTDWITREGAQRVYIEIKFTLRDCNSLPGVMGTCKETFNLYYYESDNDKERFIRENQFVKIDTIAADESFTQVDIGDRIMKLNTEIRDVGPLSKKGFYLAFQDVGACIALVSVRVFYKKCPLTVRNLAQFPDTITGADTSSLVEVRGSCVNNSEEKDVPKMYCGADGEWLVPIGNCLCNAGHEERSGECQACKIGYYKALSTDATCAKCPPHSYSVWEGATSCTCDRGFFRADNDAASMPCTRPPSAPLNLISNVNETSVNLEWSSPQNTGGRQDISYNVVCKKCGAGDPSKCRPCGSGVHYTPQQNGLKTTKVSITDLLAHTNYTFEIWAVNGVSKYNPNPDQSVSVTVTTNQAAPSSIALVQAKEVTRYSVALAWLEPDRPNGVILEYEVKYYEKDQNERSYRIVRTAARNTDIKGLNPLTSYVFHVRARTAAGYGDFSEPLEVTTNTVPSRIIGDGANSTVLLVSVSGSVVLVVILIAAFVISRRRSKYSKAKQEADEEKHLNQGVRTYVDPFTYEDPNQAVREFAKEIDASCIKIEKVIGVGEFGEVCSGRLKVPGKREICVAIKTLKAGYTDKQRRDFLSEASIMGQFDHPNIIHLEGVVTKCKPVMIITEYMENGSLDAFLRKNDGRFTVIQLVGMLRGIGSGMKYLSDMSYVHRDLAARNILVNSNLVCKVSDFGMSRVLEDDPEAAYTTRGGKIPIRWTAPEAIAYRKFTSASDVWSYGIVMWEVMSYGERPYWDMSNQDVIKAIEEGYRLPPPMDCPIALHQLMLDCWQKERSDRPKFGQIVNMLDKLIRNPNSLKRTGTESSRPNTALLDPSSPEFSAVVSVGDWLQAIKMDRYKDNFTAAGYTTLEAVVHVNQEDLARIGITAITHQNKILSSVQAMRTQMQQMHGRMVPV
- Experimental conditions: at 10 µM
State the answer as a number, implicitly in %.

State the recorded residual activity for this entry: COc1cc2ncnc(Nc3ccc(Oc4ccccc4)cc3)c2cc1OC
103

// next item, residual activity requested
State the recorded residual activity for this entry: COc1ccc(OC)c2c(=S)c3ccccc3[nH]c12
105

====

- Target or test system: CDK6/cyclin D3 (Homo sapiens) (UniProt P30281+Q00534)
- Experimental conditions: at 1 µM
- Description: Millipore: Percentage of residual kinase activity of CDK6 at 1uM relative to control. Control inhibitor: Phosphoric acid* at 0.3uM. Buffer: 8 mM MOPS pH 7.0, 0.2 mM EDTA
Reported endpoint: residual activity (%)
State the answer as a number, implicitly in %.

State the recorded residual activity for this entry: O=C(O)c1ccc2c3c1cccc3c(=O)n1c3ccccc3nc21
114

State the recorded residual activity for this entry: O=c1cc(-c2cccc3c2Sc2ccccc2S3)oc(N2CCOCC2)c1
101

State the recorded residual activity for this entry: CN(C)c1ccc(/C=C2\C(=O)Nc3ccccc32)cc1
102

State the recorded residual activity for this entry: COc1cc2ncnc(Nc3ccc(Oc4ccccc4)cc3)c2cc1OC
101

State the recorded residual activity for this entry: Nc1cccc(-c2cc3c(Oc4cccc(O)c4)ncnc3[nH]2)c1
101

State the recorded residual activity for this entry: CC#CC(=O)Nc1cc2c(Nc3ccc(F)c(Cl)c3)ncnc2cn1
96

State the recorded residual activity for this entry: Ic1cccc(CSc2nnc(-c3ccncc3)o2)c1
80

State the recorded residual activity for this entry: CC(C)n1cnc2c(NCc3ccccc3)nc(NCCCO)nc21
94

Further cases:
State the recorded residual activity for this entry: CC(=O)O/N=C1\C(=C2\C(=O)Nc3cc(Br)ccc32)Nc2ccccc21
91

State the recorded residual activity for this entry: Cc1ccc(S(=O)(=O)/C=C/C#N)cc1
95

State the recorded residual activity for this entry: Cn1cnc2cc3c(Nc4cccc(Br)c4)ncnc3cc21
99

State the recorded residual activity for this entry: N#C/C(=C(\N)Sc1ccc(N)cc1)c1ccccc1C(F)(F)F
98

State the recorded residual activity for this entry: Cc1cc2ncc(-c3ccccc3)nc2cc1C
107

State the recorded residual activity for this entry: COc1cccc(-c2cc(=O)c3ccccc3o2)c1N
102

State the recorded residual activity for this entry: O=C1NC(=O)c2c1c1c3ccccc3[nH]c1c1[nH]c3cc(Br)ccc3c21
87

====

- Target or test system: Ribosomal protein S6 kinase alpha-2 (Homo sapiens) (UniProt Q15349)
- Sequence (Q15349 whole entry): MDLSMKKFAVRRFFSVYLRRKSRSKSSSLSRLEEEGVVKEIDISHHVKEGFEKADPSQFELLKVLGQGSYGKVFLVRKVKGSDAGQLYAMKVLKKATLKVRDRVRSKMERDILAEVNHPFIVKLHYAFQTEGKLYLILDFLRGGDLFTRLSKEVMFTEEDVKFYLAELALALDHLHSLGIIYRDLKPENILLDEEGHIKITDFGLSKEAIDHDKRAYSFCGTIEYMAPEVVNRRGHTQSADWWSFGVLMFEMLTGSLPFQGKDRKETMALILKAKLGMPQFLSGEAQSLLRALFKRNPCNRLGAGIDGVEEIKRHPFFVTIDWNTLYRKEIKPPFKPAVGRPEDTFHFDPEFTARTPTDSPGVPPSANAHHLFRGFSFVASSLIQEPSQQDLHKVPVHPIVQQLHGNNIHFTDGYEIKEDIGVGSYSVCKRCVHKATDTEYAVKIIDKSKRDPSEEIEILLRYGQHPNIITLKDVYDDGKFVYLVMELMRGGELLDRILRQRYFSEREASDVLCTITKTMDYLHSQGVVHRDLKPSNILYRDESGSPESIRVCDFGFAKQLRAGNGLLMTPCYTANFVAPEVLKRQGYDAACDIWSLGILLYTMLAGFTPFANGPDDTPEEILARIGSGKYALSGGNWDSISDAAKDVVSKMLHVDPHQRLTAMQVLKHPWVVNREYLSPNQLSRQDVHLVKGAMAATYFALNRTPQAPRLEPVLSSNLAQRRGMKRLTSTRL
- Experimental conditions: at 1 µM
So basically: residual activity at 90% or higher? That is true (1). Lower than 90%? That is false (0).

Would you please look over these solved cases?
Determine whether this compound has residual activity no lower than 90%: N#C/C(=C(\N)Sc1ccc(N)cc1)c1ccccc1C(F)(F)F
false (0)

Determine whether this compound has residual activity no lower than 90%: Cn1cc(/C=C2\C(=O)Nc3ccc(S(N)(=O)=O)cc32)c2ccccc21
false (0)

Determine whether this compound has residual activity no lower than 90%: COc1cc2ncnc(Nc3ccc(NC(=O)c4ccccc4)cc3)c2cc1OC
true (1)

Further cases:
Determine whether this compound has residual activity no lower than 90%: COc1cc2ncnc(Nc3ccc(O)c(Br)c3)c2cc1OC
false (0)

Determine whether this compound has residual activity no lower than 90%: CO[C@H]1[C@@H](OC)C[C@H](C)[C@@H](OC)C2=CC(=O)C=C(NC(=O)/C(C)=C/C=C/[C@H](OC)[C@@H](OC(N)=O)/C(C)=C/[C@@H]1C)C2=O
true (1)

====

# reported residual activity; entries follow
- Target or test system: Cyclin-dependent kinase 5/CDK5 activator 1 (Homo sapiens) (UniProt Q00535+Q15078)
- Sequence (Q00535 whole entry): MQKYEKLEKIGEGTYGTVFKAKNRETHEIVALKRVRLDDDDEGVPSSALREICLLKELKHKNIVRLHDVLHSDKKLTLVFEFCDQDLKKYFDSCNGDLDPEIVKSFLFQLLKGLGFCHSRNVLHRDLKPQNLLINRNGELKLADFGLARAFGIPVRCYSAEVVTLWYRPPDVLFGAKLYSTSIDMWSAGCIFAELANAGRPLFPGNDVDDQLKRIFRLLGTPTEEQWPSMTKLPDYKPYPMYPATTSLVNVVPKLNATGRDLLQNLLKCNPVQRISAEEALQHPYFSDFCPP
- Sequence (Q15078 99-307 partner limits assumed): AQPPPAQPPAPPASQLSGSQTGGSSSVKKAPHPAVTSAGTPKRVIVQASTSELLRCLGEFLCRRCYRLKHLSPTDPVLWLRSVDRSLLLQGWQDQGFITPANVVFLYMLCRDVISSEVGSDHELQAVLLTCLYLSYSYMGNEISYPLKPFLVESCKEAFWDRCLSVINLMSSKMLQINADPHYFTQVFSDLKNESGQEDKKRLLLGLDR
- Experimental conditions: at 10 µM
State the answer as a number, implicitly in %.

Example entries and their recorded answers appear below.
Under Cyclin-dependent kinase 5/CDK5 activator 1 (Homo sapiens) (UniProt Q00535+Q15078): residual activity value of O=C1Nc2ccccc2/C1=C1/Nc2ccccc2/C1=N\OCCC(O)CO (centres undefined) ?
5

Under Cyclin-dependent kinase 5/CDK5 activator 1 (Homo sapiens) (UniProt Q00535+Q15078): residual activity value of CO[C@@H]1[C@H](N(C)C(=O)c2ccccc2)C[C@H]2O[C@]1(C)n1c3ccccc3c3c4c(c5c6ccccc6n2c5c31)C(=O)NC4 ?
54

Under Cyclin-dependent kinase 5/CDK5 activator 1 (Homo sapiens) (UniProt Q00535+Q15078): residual activity value of O=C1Nc2cc(Br)ccc2/C1=C1/Nc2ccccc2/C1=N\O ?
9

// next item, residual activity requested
Under Cyclin-dependent kinase 5/CDK5 activator 1 (Homo sapiens) (UniProt Q00535+Q15078): residual activity value of COc1cc2ncnc(Nc3ccc(Oc4ccccc4)cc3)c2cc1OC ?
109

====

- Target or test system: Activated CDC42 kinase 1 (Homo sapiens)
- Experimental conditions: at 10 µM
So basically: residual activity at 60% or higher? That is Condition met. Lower than 60%? That is Condition not met.

Would you please look over these solved cases?
Determine whether this molecule has residual activity no lower than 60%: COc1cccc(-c2cc(=O)c3ccccc3o2)c1N
Condition met

Determine whether this molecule has residual activity no lower than 60%: C[C@@H](N)[C@H]1CC[C@H](C(=O)Nc2ccncc2)CC1
Condition met

Determine whether this molecule has residual activity no lower than 60%: c1ccc(-c2n[nH]cc2-c2ccnc3ccccc23)nc1
Condition not met

Determine whether this molecule has residual activity no lower than 60%: COc1cc2ncnc(Nc3ccc(Oc4ccccc4)cc3)c2cc1OC
Condition not met

Determine whether this molecule has residual activity no lower than 60%: COc1cc2ncnc(Nc3ccc(NC(=O)c4ccccc4)cc3)c2cc1OC
Condition not met

Determine whether this molecule has residual activity no lower than 60%: O=Nc1c(-c2c(O)[nH]c3ccccc23)[nH]c2ccccc12
Condition not met

Further cases:
Determine whether this molecule has residual activity no lower than 60%: c1ccc2c(-c3ccncc3)c[nH]c2c1
Condition not met

Determine whether this molecule has residual activity no lower than 60%: Nc1nc(Nc2ccc(S(N)(=O)=O)cc2)nn1C(=S)Nc1c(F)cccc1F
Condition not met

Determine whether this molecule has residual activity no lower than 60%: Oc1ccc(-c2nc(-c3ccc(F)cc3)c(-c3ccncc3)[nH]2)cc1
Condition not met

Determine whether this molecule has residual activity no lower than 60%: CCN(CC)CCCCN1c2ccccc2Oc2ccc(Cl)cc21
Condition met

Determine whether this molecule has residual activity no lower than 60%: O=c1c2ccccc2[nH]c(=S)n1CCN1CCC(=C(c2ccc(F)cc2)c2ccc(F)cc2)CC1
Condition met

====

- Target or test system: Serine/threonine-protein kinase Nek7 (Homo sapiens)
- Experimental conditions: at 10 µM
- Description: Millipore: Percentage of residual kinase activity of NEK7 at 10uM relative to control. Control inhibitor: Phosphoric acid* at 0.3uM. Buffer: 8 mM MOPS pH 7.0, 0.2 mM EDTA
# reported residual activity; entries follow
State the answer as a number, implicitly in %.

Example entries and their recorded answers appear below.
State the recorded residual activity for this entry: CC#CC(=O)Nc1cc2c(Nc3ccc(F)c(Cl)c3)ncnc2cn1
100

State the recorded residual activity for this entry: COc1ccc(OC)c2c(=S)c3ccccc3[nH]c12
97

State the recorded residual activity for this entry: Cc1ccc(S(=O)(=O)/C=C/C#N)cc1
87

State the recorded residual activity for this entry: CO[C@@H]1[C@H](N(C)C(=O)c2ccccc2)C[C@H]2O[C@]1(C)n1c3ccccc3c3c4c(c5c6ccccc6n2c5c31)C(=O)NC4
82

State the recorded residual activity for this entry: Cc1cc2ncc(-c3ccccc3)nc2cc1C
101

// next item, residual activity requested
State the recorded residual activity for this entry: CNc1cc2c(Nc3cccc(Br)c3)ncnc2cn1
95

====

- Target or test system: Fibroblast growth factor receptor 3 (Homo sapiens) (UniProt P22607)
- Sequence (P22607 23-806 limits assumed): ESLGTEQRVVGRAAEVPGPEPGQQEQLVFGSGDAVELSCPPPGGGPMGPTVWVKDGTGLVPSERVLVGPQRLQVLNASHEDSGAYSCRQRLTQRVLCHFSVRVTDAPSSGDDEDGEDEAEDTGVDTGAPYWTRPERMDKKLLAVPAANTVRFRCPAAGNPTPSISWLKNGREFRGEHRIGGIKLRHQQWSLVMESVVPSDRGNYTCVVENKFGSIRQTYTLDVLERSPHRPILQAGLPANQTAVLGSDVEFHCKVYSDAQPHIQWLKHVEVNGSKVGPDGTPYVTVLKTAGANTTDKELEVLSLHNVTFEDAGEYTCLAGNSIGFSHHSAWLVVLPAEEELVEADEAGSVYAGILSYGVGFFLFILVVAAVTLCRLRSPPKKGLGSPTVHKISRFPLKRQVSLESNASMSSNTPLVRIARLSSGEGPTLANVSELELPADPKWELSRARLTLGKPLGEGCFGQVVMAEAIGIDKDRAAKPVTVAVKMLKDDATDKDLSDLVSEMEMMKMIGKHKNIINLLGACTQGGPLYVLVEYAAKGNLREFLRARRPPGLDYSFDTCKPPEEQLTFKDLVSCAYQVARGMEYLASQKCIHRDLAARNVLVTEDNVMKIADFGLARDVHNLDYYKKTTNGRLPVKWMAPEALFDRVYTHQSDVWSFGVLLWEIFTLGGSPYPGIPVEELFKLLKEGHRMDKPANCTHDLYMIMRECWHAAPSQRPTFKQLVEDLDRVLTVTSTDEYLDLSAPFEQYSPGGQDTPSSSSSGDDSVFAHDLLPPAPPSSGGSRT
- Experimental conditions: at 1 µM
residual activity strictly under 90% means y; at 90% or over means n.

Would you please look over these solved cases?
Quick check: residual activity of O=C1NC(=O)c2c1c1c3ccccc3[nH]c1c1[nH]c3cc(Br)ccc3c21 under 90%?
n

Quick check: residual activity of Cc1nc(-c2ccccc2)c(-c2ccncc2)o1 under 90%?
n

Quick check: residual activity of COc1cc2ncnc(N3CCN(C(=O)Nc4ccc(Oc5ccccc5)cc4)CC3)c2cc1OC under 90%?
n

Quick check: residual activity of O=[N+]([O-])c1ccc(-c2nc(-c3ccc(F)cc3)c(-c3ccncc3)[nH]2)cc1 under 90%?
n

Quick check: residual activity of CC#CC(=O)Nc1cc2c(Nc3ccc(F)c(Cl)c3)ncnc2cn1 under 90%?
y

Quick check: residual activity of O=C1Nc2cc(Br)ccc2/C1=C1/Nc2ccccc2/C1=N\O under 90%?
y

Further cases:
Quick check: residual activity of CC(C)n1cnc2c(NCc3ccccc3)nc(NCCCO)nc21 under 90%?
n

Quick check: residual activity of O=Nc1c(-c2c(O)[nH]c3ccccc23)[nH]c2ccccc12 under 90%?
y

Quick check: residual activity of CO[C@@H]1[C@H](N(C)C(=O)c2ccccc2)C[C@H]2O[C@]1(C)n1c3ccccc3c3c4c(c5c6ccccc6n2c5c31)C(=O)NC4 under 90%?
y

Quick check: residual activity of Oc1ccc(-c2nc(-c3ccc(F)cc3)c(-c3ccncc3)[nH]2)cc1 under 90%?
n

Quick check: residual activity of O=C1NC(=O)/C(=C\c2ccc3nccnc3c2)S1 under 90%?
n

Quick check: residual activity of c1ccc(-c2n[nH]c3c2oc2ccccc23)cc1 under 90%?
n

Quick check: residual activity of Cc1cc2ncc(-c3ccccc3)nc2cc1C under 90%?
y
